B1: RAB11B (parent)
chain: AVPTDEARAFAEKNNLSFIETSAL

Variants of: B1
EXPERIMENTAL PROTOCOL: protein stability index of a GFP-peptide fusion (GPS, HEK-293T) (PSI 1-6); higher = more stable;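 further: lentivirally expressed fusions sorted by FACS into six bins by GFP to DsRed ratio, PSI derived from sequencing read proportions per bin multiplied by bin number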
ASSAY CONDITIONS: c terminus: a fixed tail appended
Each item that follows carries a reported protein stability index.
Reply: number alone, nothing else.

Task: Determine from records and report protein stability index for `I19G`
Output: 4.64
